System: MARK1;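 note: KINOMEscan kinase panel screen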
Conditions: concentration: 1 μM, replicates: in singlicate; n = 1
List of %Inh values.
Answer format: number, then unit.

What measured %Inh is associated with Cc1ccccc1-n1cnc2c(N)ncnc21 [SKF-97510] on MARK1?
0%

More entries:
What measured %Inh is associated with Cn1ccc2ncnc(Oc3ccc(Nc4nc5ccccc5[nH]4)cc3)c21 on MARK1?
0%

What measured %Inh is associated with Cc1cc(N2Cc3ccccc3C2)nc(Nc2ccc(S(=O)(=O)N3CCOCC3)cc2)n1.Cl [GSK1669917] on MARK1?
0%

What measured %Inh is associated with Cc1nnc(-c2ccc3occ(-c4ccc(S(C)=O)cc4)c3c2)[nH]1 (stereo not drawn) on MARK1?
21%

What measured %Inh is associated with Cc1c(O)cccc1Nc1ccnc2ccc(C(F)(F)F)cc12.Cl [GW466413] on MARK1?
0%

What measured %Inh is associated with COC(=O)c1c(-c2ccccc2)c2cc(C(=O)O)ccc2c(=O)n1Cc1ccccc1 on MARK1?
0%

What measured %Inh is associated with O=C(Nc1ccc2c(c1)OCO2)NC1CCN(c2ccnc(Nc3ccc(F)cc3)n2)C1 (stereo not drawn) [GSK1379724] on MARK1?
0%

What measured %Inh is associated with COc1ccccc1CNC(=O)c1cc(C(=O)c2ccccc2C)c[nH]1 [GSK364507] on MARK1?
89%

What measured %Inh is associated with CC1=C(C(=O)Nc2cc3cn[nH]c3cc2F)C(c2ccc(C(F)(F)F)cc2)CC(=O)N1 (stereo not drawn) [GSK429286] on MARK1?
0%

What measured %Inh is associated with COC(=O)c1c(-c2ccccc2)c2cc(OC)ccc2c(=O)n1Cc1ccccc1 on MARK1?
19%

What measured %Inh is associated with O=C(O)COc1ncnc2cc(-c3ccc4[nH]ncc4c3)sc12 on MARK1?
8%

What measured %Inh is associated with Cc1ccc(C(=O)Nc2ccc(Nc3ccnc4cc(-c5ccccn5)ccc34)cc2O)cc1.Cl [GW440146] on MARK1?
0%
